Target: SARS-CoV-2 NSP3 macrodomain (Mac1) (Severe acute respiratory syndrome coronavirus 2)
Format: binding
Conditions: crystal soak 10 mM; TFA/DMSO background map
Entries whose PanDDA run, TFA/DMSO background map: 1-BDC is below 0.08 take Y; entries at or above 0.08 take N.

# count of solved cases: 3
INSERT INTO assay_data (compound, classification) VALUES
  ('O=C(O)C(F)(F)F.OCC1C2C=CC(C2)N1c1ncnc2[nH]ccc12 (centres unmarked) [AVI-3712]', 'Y'),
  ('O=C(O)C(F)(F)F.OCC(Nc1ncnc2[nH]ccc12)C1CCCO1 (centres unmarked) [AVI-3645]', 'N'),
  ('O=C(O)C(F)(F)F.OC[C@@H](CCc1ccccc1)Nc1ncnc2[nH]ccc12 [AVI-3654]', 'Y');

Field: below-cutoff. Rule: recorded PanDDA run, TFA/DMSO background map: 1-BDC strictly less than 0.08. Subject: CC(C)CCC(CO)Nc1ncnc2[nH]ccc12.O=C(O)C(F)(F)F (centres unmarked) [AVI-3668]
N
